- test-name: Acute toxicity in iv dosed mouse
- condition-info: in vivo
Output satisfied for records whose LD50 is lower than 40 mg/kg, not satisfied for records at or above 40 mg/kg.

Problem: For the compound CC(C)(C)NCC(O)c1cc(Cl)cs1 (racemic) , is LD50 under 40 mg/kg?
satisfied

Problem: For the compound CC(C)NCC(O)c1cc(Br)cs1 (racemic) , is LD50 under 40 mg/kg?
not satisfied

Problem: For the compound CC(C)(C)NCC(O)c1scc(Br)c1Br (racemic) , is LD50 under 40 mg/kg?
satisfied

Problem: For the compound CC(C)NCC(O)c1scc(Br)c1Br.Cl (racemic) , is LD50 under 40 mg/kg?
satisfied

Problem: For the compound CC(C)(C)NCC(O)c1sc(Br)cc1Br (racemic) , is LD50 under 40 mg/kg?
not satisfied

Problem: For the compound CC(C)(C)NCC(O)c1sccc1Cl (racemic) , is LD50 under 40 mg/kg?
satisfied

Problem: For the compound CC(C)(C)NCC(O)c1cc(Br)c(Br)s1 (racemic) , is LD50 under 40 mg/kg?
satisfied

Problem: For the compound CC(C)(C)NCC(O)c1ccc(Br)s1 (racemic) , is LD50 under 40 mg/kg?
satisfied

Problem: For the compound CC(C)NCC(O)c1cc(Cl)cs1 (racemic) , is LD50 under 40 mg/kg?
satisfied

Problem: For the compound CC(C)NCC(O)c1sccc1Br (racemic) , is LD50 under 40 mg/kg?
satisfied

Origin of measurements: ChEMBL document CHEMBL3244194
